- target-system: Bombyx mori EcR (VP16 fusion, CVBE switch construct) (Bombyx mori, UniProt P49881)
- Sequence (P49881 86-606): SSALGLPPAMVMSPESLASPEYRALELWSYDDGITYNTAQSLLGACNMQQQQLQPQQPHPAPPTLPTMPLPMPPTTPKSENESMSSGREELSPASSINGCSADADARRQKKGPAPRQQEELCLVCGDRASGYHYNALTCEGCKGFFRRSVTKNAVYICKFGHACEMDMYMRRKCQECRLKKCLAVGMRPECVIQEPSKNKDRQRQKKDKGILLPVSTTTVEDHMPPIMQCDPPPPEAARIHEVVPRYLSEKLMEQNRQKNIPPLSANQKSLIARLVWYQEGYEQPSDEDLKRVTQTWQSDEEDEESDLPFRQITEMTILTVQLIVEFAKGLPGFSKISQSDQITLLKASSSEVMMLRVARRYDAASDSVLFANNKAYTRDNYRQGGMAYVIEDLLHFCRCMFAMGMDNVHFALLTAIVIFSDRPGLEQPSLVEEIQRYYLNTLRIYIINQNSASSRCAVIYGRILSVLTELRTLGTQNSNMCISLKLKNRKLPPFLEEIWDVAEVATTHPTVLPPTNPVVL
- Sequence (P19793 whole entry partner, the tested form may be a part): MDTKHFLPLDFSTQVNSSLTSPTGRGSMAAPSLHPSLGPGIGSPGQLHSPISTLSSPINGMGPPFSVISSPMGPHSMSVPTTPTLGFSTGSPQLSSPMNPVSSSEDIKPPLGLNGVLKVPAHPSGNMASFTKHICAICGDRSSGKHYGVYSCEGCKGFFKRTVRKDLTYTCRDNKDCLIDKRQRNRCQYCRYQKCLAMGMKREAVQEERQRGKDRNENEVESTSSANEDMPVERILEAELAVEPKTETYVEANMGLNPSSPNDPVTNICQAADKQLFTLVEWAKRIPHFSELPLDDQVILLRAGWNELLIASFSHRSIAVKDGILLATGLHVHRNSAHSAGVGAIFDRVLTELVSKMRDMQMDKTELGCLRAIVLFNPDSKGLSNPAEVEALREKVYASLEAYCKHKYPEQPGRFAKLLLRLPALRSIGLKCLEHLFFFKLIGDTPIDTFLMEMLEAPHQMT
- protocol-notes: Z3 Assay (HEK-293 cells with CVBE and 6XEcRE LacZ, β-galactosidase reporter)
- study-conditions: 3.3 uM ligand; ligand treated / DMSO treated cells; average of two wells
Each item that follows carries a reported Fold Induction, Z3 Assay, 3.3 uM.
experimental-endpoint: Fold Induction, Z3 Assay, 3.3 uM

# molecule, test-value
data = [
    ("COc1cc(C(=O)N(NC(=O)c2cccc(OC(C)=O)c2C)C(C)(C)C)cc(OC)c1C [RG-115557]", 426),
    ("CCc1c(OC)cccc1C(=O)NN(C(=O)c1cc(Cl)ccc1[N+](=O)[O-])C(C)(C)C [RG-115257]", 297),
    ("Cc1cc(C)cc(C(=O)N(NC(=O)c2cccc(I)c2C)C(C)(C)C)c1 [RG-101734]", 987),
    ("CCc1c(C(=O)NN(C(=O)c2cccc(OC)c2)C(C)(C)C)ccc2c1OCCO2 [RG-100691]", 843),
    ("COc1cccc(C(=O)NN(C(=O)c2cc(C)cc(C)c2)C(C)(C)C)c1N [RG-115378]", 488),
    ("COc1cc(F)ccc1C(=O)N(NC(=O)c1cccc(OC)c1C)C(C)(C)C [RG-100524]", 991),
    ("CCc1c(C(=O)NN(C(=O)c2cc(C)cc(C)c2)C(C)(C)C)ccc2c1OC(C)O2 (centres unmarked) [RG-101659]", 954),
    ("Cc1cc(C)cc(C(=O)N(NC(=O)c2ccc3c(c2Cl)COCO3)C(C)(C)C)c1 [RG-115532]", 530),
]
